biological target: Human AMPK α2ß2γ1 (Homo sapiens, UniProt O43741+P54646); construct: The full length cDNAs of human AMPK ß2 (NM_005399.3) and human AMPK α2 (NM_006252.3); The full length cDNAs of human AMPK ß2 (NM_005399.3); 6xHis (N); made in house; host or cells: Escherichia coli BL21 CodonPlus (DE3)-RIL; experiment: Test Example 2: evaluation of an activator for AMP-activated protein kinase (AMPK), LabChip mobility shift assay with CaMKK2-phosphorylated enzyme; type: biochemical; conditions: FL-Peptide 7 substrate, 25° C., 2 hours
Sequence (P54646 whole entry): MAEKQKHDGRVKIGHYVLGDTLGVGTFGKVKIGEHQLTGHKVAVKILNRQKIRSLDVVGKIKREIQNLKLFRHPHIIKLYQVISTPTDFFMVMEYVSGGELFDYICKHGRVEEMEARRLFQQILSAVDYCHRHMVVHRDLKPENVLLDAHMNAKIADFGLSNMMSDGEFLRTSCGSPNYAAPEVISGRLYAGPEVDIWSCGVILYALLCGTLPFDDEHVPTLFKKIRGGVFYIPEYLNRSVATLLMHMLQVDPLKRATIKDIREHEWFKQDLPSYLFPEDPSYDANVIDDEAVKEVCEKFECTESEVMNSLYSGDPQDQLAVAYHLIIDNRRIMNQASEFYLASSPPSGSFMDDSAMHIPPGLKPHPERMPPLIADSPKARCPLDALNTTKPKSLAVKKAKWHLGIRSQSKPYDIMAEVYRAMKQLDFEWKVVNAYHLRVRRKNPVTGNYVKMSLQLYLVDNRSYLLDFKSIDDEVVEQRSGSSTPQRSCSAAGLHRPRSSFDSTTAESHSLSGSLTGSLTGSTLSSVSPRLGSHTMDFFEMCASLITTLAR
Sequence (O43741 whole entry): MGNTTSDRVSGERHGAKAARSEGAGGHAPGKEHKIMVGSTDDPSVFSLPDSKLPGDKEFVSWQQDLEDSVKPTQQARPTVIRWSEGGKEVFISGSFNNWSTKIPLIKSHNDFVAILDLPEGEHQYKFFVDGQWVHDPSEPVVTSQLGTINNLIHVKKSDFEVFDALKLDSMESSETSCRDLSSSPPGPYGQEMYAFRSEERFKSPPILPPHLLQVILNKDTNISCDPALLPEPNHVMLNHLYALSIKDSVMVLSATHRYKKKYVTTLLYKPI
Sequence (P54619 whole entry partner): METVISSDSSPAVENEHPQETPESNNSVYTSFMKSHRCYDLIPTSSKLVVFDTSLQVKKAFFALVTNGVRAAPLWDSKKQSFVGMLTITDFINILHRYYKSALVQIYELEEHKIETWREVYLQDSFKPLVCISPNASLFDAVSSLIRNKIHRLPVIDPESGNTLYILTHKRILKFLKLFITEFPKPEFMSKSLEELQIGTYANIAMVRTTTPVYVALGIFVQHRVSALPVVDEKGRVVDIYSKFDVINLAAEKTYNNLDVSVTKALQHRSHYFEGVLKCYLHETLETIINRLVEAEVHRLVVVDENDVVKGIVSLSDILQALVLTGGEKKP
Parameter: EC150 (compound concentration showing 150% relative to the control (100%))

>  <Compound>
Cn1cc(-c2cc(F)c3c(c2)CCC3Nc2nc3nc(O[C@@H]4CO[C@H]5[C@@H]4OC[C@H]5O)[nH]c3cc2Cl)ccc1=O (stereo partly drawn)

>  <Reported result>
1.4 nM

$$$$
>  <Compound>
CCOC/C=C/c1cc(F)c2c(c1)CC[C@@H]2Nc1nc2nc(O[C@@H]3CO[C@H]4[C@@H]3OC[C@H]4O)[nH]c2cc1Cl

>  <Reported result>
2 nM

$$$$
>  <Compound>
O[C@@H]1CO[C@H]2[C@@H]1OC[C@H]2Oc1nc2nc(NC3CCc4cc(O[C@@H]5CCOC5)cc(F)c43)c(Cl)cc2[nH]1 (stereo partly drawn)

>  <Reported result>
3.4 nM

$$$$
>  <Compound>
COCCNc1cnc2c(c1)CCC2Nc1nc2nc(O[C@@H]3CO[C@H]4[C@@H]3OC[C@H]4O)[nH]c2cc1Cl (stereo partly drawn)

>  <Reported result>
33 nM

$$$$
>  <Compound>
C/C=C/c1cc(F)c2c(c1)CCC2Oc1nc2nc(O[C@@H]3CO[C@H]4[C@@H]3OC[C@H]4O)[nH]c2cc1Cl (stereo partly drawn)

>  <Reported result>
13 nM

$$$$
>  <Compound>
O=c1[nH]cc(-c2cc(F)c3c(c2)CC[C@@H]3Nc2nc3nc(O[C@@H]4CO[C@H]5[C@@H]4OC[C@H]5O)[nH]c3cc2Cl)cc1F

>  <Reported result>
3.9 nM

$$$$
